- target-under-test: UniProtKB O43614
- Sequence (O43614 whole entry): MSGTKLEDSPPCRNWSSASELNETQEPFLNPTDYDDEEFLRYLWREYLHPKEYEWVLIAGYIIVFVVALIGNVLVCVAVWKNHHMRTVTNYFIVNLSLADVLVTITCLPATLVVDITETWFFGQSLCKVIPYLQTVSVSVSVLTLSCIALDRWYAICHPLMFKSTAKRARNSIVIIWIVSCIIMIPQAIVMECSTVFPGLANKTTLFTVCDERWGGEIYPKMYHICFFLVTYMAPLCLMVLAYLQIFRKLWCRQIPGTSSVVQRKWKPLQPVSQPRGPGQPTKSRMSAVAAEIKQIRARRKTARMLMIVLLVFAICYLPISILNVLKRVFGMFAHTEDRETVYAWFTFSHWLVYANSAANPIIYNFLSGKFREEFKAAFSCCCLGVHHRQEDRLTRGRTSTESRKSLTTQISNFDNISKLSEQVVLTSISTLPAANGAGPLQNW
- experiment: Counterscreen assay for antagonists of the orexin 1 receptor (OX1R; HCRTR1): Fluorescence-based cell-based dose response assay for antagonists of the orexin 2 receptor (OX2R; HCRTR2), run by assay provider.
- Type: functional
Calls of active or inactive are those of the source. Rule as the data show it: active = IC50 of 10 µM or less and inactive = more.
quantity-name: IC50

// query Recorded IC50 of Cc1ccccc1N(CC(=O)NC1CCCC1)C(=O)c1oc(C(C)(C)C)cc1C , please.
// result > 88.8 µM (inactive)

// query Name the recorded IC50 for CCN(CC)P(=O)(Nc1cccc(C(F)(F)F)c1)c1ccc(N(C)C)cc1NC(=O)c1ccco1 (centres undefined) .
// result 5 µM (active)

// query // lookup IC50 for CC[C@]12c3[nH]c4cc(-c5ccco5)ccc4c3CCN1C(=O)[C@@H](CC(=O)NC/C=C(\C)CCC=C(C)C)C[C@@H]2C(=O)N1CCN(C(=O)c2ccco2)CC1
// result 39.5 µM (inactive)

***
// query IC50 value for entry Cc1cc(SCC(=O)c2ccc3c(c2)OCO3)nc2ccccc12
// result 14.1 µM (inactive)
